biological target: N-type calcium channels (Homo sapiens, UniProt Q00975); construct: expressed in transfected cells; host or cells: HEK cells; type: cell-based, mammalian; conditions: read-out: IC50 for inhibition of N-type calcium channels
Sequence (Q02641 whole entry): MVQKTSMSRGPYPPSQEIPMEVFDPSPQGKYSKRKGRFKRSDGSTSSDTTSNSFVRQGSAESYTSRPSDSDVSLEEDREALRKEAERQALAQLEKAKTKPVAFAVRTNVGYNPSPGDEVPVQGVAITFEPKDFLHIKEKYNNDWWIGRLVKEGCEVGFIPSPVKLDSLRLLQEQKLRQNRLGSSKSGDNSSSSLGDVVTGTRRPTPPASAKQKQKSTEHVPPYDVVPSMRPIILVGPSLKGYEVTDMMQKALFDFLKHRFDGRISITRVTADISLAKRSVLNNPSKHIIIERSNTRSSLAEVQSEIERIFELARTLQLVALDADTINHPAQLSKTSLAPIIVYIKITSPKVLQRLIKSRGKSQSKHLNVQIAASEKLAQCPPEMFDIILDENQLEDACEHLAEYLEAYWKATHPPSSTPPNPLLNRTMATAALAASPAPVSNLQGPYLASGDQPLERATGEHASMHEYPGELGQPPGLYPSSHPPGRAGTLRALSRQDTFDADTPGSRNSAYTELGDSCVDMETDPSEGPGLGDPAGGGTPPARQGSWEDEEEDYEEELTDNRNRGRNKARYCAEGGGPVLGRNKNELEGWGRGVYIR
Sequence (P54289 957-1103, further chain): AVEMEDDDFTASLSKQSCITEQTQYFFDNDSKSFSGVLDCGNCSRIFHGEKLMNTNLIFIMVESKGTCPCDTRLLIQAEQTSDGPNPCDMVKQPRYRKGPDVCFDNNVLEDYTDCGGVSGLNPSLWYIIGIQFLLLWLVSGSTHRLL
Sequence (P54289 25-956, further chain): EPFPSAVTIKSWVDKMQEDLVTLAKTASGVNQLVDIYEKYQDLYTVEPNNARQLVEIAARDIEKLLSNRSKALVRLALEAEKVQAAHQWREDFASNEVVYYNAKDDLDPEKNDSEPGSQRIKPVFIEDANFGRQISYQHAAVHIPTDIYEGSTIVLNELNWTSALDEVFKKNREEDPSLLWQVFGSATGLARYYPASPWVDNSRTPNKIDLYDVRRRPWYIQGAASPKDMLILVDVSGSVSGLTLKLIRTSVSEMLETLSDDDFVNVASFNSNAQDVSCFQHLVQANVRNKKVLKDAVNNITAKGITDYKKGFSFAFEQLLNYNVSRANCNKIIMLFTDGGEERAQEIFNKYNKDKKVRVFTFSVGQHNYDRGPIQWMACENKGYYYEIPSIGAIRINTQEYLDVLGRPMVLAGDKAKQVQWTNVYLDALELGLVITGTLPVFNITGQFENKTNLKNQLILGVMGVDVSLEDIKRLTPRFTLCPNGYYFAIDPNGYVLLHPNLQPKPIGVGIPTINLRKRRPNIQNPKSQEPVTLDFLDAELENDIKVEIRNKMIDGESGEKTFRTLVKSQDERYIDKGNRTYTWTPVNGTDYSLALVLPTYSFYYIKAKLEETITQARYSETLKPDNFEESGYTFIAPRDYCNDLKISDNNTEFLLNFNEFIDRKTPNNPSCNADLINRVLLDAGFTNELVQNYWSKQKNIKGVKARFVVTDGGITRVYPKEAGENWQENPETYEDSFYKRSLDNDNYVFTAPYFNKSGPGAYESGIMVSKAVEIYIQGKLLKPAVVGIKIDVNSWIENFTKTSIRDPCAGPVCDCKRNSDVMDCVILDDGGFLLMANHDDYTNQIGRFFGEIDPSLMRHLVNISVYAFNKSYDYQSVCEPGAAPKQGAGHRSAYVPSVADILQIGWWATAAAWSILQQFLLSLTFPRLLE
Sequence (Q00975 whole entry): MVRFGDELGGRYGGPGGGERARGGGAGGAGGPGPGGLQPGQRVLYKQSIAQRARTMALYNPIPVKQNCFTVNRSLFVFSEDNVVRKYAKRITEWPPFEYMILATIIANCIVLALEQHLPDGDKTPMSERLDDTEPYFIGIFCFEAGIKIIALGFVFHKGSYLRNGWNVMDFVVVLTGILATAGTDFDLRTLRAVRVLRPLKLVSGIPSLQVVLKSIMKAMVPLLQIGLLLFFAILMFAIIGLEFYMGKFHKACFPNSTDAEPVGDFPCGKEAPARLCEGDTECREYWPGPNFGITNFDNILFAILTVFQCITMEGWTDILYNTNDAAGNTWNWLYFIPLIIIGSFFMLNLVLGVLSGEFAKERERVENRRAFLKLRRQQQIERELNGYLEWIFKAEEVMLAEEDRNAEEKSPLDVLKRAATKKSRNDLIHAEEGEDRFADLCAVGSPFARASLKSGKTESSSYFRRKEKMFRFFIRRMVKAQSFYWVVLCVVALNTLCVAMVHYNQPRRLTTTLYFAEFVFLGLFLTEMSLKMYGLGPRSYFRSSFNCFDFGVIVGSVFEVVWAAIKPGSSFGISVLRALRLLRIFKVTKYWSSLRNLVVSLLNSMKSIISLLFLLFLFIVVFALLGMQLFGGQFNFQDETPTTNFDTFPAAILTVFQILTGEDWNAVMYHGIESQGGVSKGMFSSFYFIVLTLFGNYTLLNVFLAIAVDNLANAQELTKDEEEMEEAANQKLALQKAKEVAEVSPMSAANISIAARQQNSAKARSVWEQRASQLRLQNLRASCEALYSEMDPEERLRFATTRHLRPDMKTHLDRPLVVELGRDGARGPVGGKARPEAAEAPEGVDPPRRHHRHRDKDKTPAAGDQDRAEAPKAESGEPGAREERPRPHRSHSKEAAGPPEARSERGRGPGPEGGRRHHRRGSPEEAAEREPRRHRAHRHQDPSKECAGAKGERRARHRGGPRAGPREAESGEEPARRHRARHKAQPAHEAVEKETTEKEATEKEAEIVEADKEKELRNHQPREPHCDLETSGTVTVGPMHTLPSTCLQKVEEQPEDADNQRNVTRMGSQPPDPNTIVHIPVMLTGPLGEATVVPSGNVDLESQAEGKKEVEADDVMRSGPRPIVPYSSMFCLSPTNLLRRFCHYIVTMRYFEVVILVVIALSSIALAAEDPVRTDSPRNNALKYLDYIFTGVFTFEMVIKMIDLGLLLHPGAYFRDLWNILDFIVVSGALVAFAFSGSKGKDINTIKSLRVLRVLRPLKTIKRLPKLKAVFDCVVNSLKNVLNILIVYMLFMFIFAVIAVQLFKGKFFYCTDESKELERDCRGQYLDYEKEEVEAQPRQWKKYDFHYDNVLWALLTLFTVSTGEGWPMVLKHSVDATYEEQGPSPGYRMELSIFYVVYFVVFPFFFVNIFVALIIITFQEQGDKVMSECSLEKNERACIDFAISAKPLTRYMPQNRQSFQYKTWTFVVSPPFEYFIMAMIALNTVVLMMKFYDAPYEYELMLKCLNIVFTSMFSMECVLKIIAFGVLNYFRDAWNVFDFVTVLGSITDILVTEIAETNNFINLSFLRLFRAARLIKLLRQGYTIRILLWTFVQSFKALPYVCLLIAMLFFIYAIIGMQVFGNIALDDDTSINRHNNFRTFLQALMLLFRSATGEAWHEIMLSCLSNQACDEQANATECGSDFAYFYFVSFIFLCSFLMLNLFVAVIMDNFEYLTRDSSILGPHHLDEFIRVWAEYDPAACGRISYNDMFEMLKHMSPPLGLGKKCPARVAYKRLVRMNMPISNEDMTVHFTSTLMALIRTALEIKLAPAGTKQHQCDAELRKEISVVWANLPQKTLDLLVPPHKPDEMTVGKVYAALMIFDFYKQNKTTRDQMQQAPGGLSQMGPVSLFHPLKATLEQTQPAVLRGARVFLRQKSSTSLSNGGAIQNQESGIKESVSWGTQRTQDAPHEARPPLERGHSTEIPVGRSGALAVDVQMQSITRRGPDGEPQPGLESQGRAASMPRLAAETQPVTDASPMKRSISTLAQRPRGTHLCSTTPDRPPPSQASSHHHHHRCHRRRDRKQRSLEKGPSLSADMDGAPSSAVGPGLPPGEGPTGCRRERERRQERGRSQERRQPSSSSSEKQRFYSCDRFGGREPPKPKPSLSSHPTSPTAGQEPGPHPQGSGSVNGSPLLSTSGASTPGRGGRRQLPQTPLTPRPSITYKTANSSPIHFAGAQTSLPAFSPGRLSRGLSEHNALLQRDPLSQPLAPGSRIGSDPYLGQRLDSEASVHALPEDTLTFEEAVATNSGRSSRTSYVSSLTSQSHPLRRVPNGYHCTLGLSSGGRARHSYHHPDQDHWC
Parameter measured: IC50 (nM)
Give the value, in units of nM, as a plain number.

Field request: IC50 | item: Phα1B (ACIPRGEICTDDCECCGCDNQCYCPPGSSLGIFKCSCAHANKYFCNRKKEKCKA)
122

The reported numbers originate from patent US8383162B2.
